Tested on: antibodies in sera from SARS patients (sera 1a, 1b, 2, 6, 37, 62, London, SARS-yellow, SARS-green)
Format: binding, human
Overview of reported Binding of serum 1a to linear peptide (PEPSCAN-ELISA) across a group of sequences:
Write the value as a bare number.

Before answering, review these 3 worked examples.
The recorded Binding of serum 1a to linear peptide (PEPSCAN-ELISA) for PKGFYAEGSRGGSQA is 0.3

The recorded Binding of serum 1a to linear peptide (PEPSCAN-ELISA) for EASKKPRQKRTATKQ is 0.2

The recorded Binding of serum 1a to linear peptide (PEPSCAN-ELISA) for QGNFGDQDLIRQGTD is 0.3

Further cases:
The recorded Binding of serum 1a to linear peptide (PEPSCAN-ELISA) for ALALLLLDRLNQLES is 0.3

The recorded Binding of serum 1a to linear peptide (PEPSCAN-ELISA) for GSQASSRSSSRSRGN is 0.3

The recorded Binding of serum 1a to linear peptide (PEPSCAN-ELISA) for STPGSSRGNSPARMA is 0.5

The recorded Binding of serum 1a to linear peptide (PEPSCAN-ELISA) for ETALALLLLDRLNQL is 0.2

The recorded Binding of serum 1a to linear peptide (PEPSCAN-ELISA) for AEASKKPRQKRTATK is 0.2

The recorded Binding of serum 1a to linear peptide (PEPSCAN-ELISA) for GGGETALALLLLDRL is 0.2

The recorded Binding of serum 1a to linear peptide (PEPSCAN-ELISA) for LPKGFYAEGSRGGSQ is 0.2

The recorded Binding of serum 1a to linear peptide (PEPSCAN-ELISA) for SSSRSRGNSRNSTPG is 0.4

* * *

Overview of reported Binding of serum SARS-green to linear peptides of protein X5 of SARS-CoV Urbani across a group of sequences:
System: antibodies in sera from SARS patients (sera 1a, 1b, 2, 6, 37, 62, London, SARS-yellow, SARS-green)
Assay type: binding, human
Write the value as a bare number.

Before answering, review these 4 worked examples.
The recorded Binding of serum SARS-green to linear peptides of protein X5 of SARS-CoV Urbani for VLPFHRWHTMVQTCT is 0.6

The recorded Binding of serum SARS-green to linear peptides of protein X5 of SARS-CoV Urbani for VQTCTPNVTINCQDP is 0.7

The recorded Binding of serum SARS-green to linear peptides of protein X5 of SARS-CoV Urbani for FHRWHTMVQTCTPNV is 0.5

The recorded Binding of serum SARS-green to linear peptides of protein X5 of SARS-CoV Urbani for AGGALIARCWYLHEG is 0.7

Okay, now this sequence:
The recorded Binding of serum SARS-green to linear peptides of protein X5 of SARS-CoV Urbani for CLKILVRYNTRGNTY is 0.7

* * *

Tested on: antibodies in sera from SARS patients (sera 1a, 1b, 2, 6, 37, 62, London, SARS-yellow, SARS-green)
Type: binding, human
ATTRIBUTE MEASURED: Binding of serum SARS-yellow to linear peptides of protein X1 of SARS-CoV Urbani
Write the value as a bare number.

Before answering, review these 5 worked examples.
The recorded Binding of serum SARS-yellow to linear peptides of protein X1 of SARS-CoV Urbani for CINACRIIMRCWLCW is 0.4

The recorded Binding of serum SARS-yellow to linear peptides of protein X1 of SARS-CoV Urbani for FGWLVIGVAFLAVFQ is 0.5

The recorded Binding of serum SARS-yellow to linear peptides of protein X1 of SARS-CoV Urbani for VYYQLESTQITTDTG is 0.3

The recorded Binding of serum SARS-yellow to linear peptides of protein X1 of SARS-CoV Urbani for AAGMEAQFLYLYALI is 0.3

The recorded Binding of serum SARS-yellow to linear peptides of protein X1 of SARS-CoV Urbani for TIDGSSGVANPAMDP is 0.3

Further cases:
The recorded Binding of serum SARS-yellow to linear peptides of protein X1 of SARS-CoV Urbani for LALYKGFQFICNLLL is 0.5

The recorded Binding of serum SARS-yellow to linear peptides of protein X1 of SARS-CoV Urbani for LFVTIYSHLLLVAAG is 0.5

The recorded Binding of serum SARS-yellow to linear peptides of protein X1 of SARS-CoV Urbani for TEVYYQLESTQITTD is 0.6

The recorded Binding of serum SARS-yellow to linear peptides of protein X1 of SARS-CoV Urbani for HTIDGSSGVANPAMD is 0.4
